This collection of values is drawn from patent US20240270821A1.

# assay.system: human glucagon receptor (human) (UniProt P47871)
# Sequence (P47871 26-477): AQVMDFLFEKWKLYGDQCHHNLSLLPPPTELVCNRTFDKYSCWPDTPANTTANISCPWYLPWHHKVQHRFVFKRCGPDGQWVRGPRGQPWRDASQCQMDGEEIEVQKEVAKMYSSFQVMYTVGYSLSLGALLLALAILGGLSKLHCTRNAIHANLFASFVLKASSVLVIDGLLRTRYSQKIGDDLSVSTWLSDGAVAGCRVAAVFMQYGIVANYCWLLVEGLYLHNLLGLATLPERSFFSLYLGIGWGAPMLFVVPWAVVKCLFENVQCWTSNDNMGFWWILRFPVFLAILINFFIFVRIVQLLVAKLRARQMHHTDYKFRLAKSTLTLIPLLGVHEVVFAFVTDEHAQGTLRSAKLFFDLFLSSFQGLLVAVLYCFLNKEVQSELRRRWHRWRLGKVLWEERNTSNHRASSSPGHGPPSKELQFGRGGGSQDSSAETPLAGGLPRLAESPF
# test.details: cell-based or functional assay
Exercise: state measured cAMP Rel EC50, nM (1% HSA) for each of the binders provided.
Answers are plain numbers, in nM.

binder	u	observed.measurement
YXQGTFTSDFSXXLDKKAQXAFIEYLLEGGHSSGAPPPGGS (synthetic construct; SITE 2: note = 2-Aminoisobutyric Acid; SITE 12: note = L-ornithine; SITE 13: note = alpha-methyl-leucine; SITE 17: note = Lysine is chemically modified through conjugation of the epsilon-amino group of the Lysine side chain with (2-[2-(2-Amino-ethoxy)-ethoxy]-acetyl)-(gamma-Glu)) [Example 162]	nM	558
YXQGTFTSDXSXXLDXKAQXQFIEYLLAGGPSSGAPPPSGSEE (non-natural residues; (γGlu)2-C18 diacid on Lys; C-terminal amide; synthetic construct; SITE 2: note = 2-Aminoisobutyric Acid; SITE 10: note = 3-(4-Pyridyl)-L-alanine; SITE 12: note = L-ornithine; SITE 13: note = alpha-methyl-leucine; SITE 16: note = L-ornithine; SITE 17: note = Lysine is chemically modified through conjugation of the epsilon-amino group of the Lys) [Example 1002]	nM	197
YXQGTFTSDXSXXLDXKAQXEFIEXLIEGGPSSGAPPPSGSEE (Aib, 4Pal, Orn, Me4Pal, αMeY; acylated lysine; amide; synthetic construct; SITE 2: note = 2-Aminoisobutyric Acid; SITE 10: note = 3-(4-Pyridyl)-L-alanine; SITE 12: note = L-ornithine; SITE 13: note = alpha-methyl-leucine; SITE 16: note = L-ornithine; SITE 17: note = Lysine is chemically modified through conjugation of the epsilon-amino group of the Lys) [Example 973]	nM	2270
YXQGTXTSDYSIXLDKKAQXAFIEYLEEGGPSSGAPPPSEG (synthetic construct; SITE 2: note = 2-Aminoisobutyric Acid; SITE 6: note = alpha-methyl-L-phenylalanine; SITE 13: note = alpha-methyl-leucine; SITE 17: note = Lysine is chemically modified through conjugation of the epsilon-amino group of the Lysine side chain with (2-[2-(2-Amino-ethoxy)-ethoxy]-ace)) [Example 395]	nM	1190
YXQGTFTSDXSQXLDKKAQXAFIEYLIEAGPSSGAPPPSGSE (Aib, 4Pal, αMeL, Me4Pal; K acylated AEEA-(γGlu)2-C18 diacid; amide; synthetic construct; SITE 2: note = 2-Aminoisobutyric Acid; SITE 10: note = 3-(4-Pyridyl)-L-alanine; SITE 13: note = alpha-methyl-leucine; SITE 17: note = Lysine is chemically modified through conjugation of the epsilon-amino group of the Lysine side chain with (2-[2-(2-Amino-ethoxy)-ethoxy]-acetyl)) [Example 1024]	nM	760

Now look at this one.
Fill blank: measured cAMP Rel EC50, nM (1% HSA) of the binder YXQGTFTSDFSXXLDKKAQXAFIEYLLEAGPSSGAPPPEGE (acylated; synthetic construct; SITE 2: note = 2-Aminoisobutyric Acid; SITE 12: note = L-ornithine; SITE 13: note = alpha-methyl-leucine; SITE 17: note = Lysine is chemically modified through conjugation of the epsilon-amino group of the Lysine side chain with (2-[2-(2-Amino-ethoxy)-ethoxy]-acetyl)-(gamma-Glu)) [Example 206] is ____.
545
